These measurements were taken from paper PMC4358367.

Molecular target: T1, AnkG_repeats (24 ANK repeats of rat 190 kDa ankyrin-G, residues 38–855) (rat, UniProt O70511 38-855)
T1 construct: ankyrin-G (AnkG), rat, 190 kDa isoform used as template, ANK repeats, residues 38-855; also called AnkG ANK repeats; wild-type ANK repeats; source: E. coli BL21 (DE3), purified
T1 sequence (looked up): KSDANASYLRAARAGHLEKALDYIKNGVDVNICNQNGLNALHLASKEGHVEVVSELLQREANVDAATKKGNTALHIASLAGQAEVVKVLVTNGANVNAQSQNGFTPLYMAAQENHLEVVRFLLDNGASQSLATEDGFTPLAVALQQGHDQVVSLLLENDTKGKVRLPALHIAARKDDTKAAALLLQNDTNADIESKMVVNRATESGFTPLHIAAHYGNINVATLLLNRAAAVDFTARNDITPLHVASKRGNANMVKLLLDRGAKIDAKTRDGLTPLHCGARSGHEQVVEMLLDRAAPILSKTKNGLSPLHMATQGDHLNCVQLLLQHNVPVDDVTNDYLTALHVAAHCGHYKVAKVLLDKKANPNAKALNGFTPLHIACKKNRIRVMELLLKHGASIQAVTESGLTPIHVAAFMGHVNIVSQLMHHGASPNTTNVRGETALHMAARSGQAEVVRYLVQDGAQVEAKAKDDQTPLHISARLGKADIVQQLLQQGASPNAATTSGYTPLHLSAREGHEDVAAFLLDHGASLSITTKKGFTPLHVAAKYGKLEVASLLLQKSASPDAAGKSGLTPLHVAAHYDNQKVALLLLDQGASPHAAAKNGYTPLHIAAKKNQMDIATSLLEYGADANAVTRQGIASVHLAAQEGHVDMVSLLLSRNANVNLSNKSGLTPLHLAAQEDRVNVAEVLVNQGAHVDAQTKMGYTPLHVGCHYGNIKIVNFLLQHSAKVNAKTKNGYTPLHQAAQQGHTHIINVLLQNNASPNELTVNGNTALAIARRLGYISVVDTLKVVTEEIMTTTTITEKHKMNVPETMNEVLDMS
Test: ITC; VP-ITC at 25°C; 50 mM Tris pH 7.5, 100 mM NaCl, 1 mM EDTA, 1 mM DTT; binding partner (AS, Nav1.2 ABD proteins, neurofascin ABD; 200–300 µM) in the syringe, ANK repeats (20–30 µM) in the cell; one-site binding model
Settings: both partners purified
pKd: −log10 of the molar value.
observed_property: pKd

I'd like to know its pKd. The binder in question is Nav1.2 ABD-N (N-terminal 68-residue fragment of loop 2, residues 1035–1102) (domain or fragment) KALDEIKPLEDLNNKKDSCISNHTTIEIGKDLNYLKDGNGTTSGIGSSVEKYVVDESDYMSFINNPSL ~5.10
